Test system: BxPC-3 (human pancreatic carcinoma)
Test: Proliferation arrest and loss of viability (cell number and propidium iodide, flow cytometry)
Format: cell-based
Conditions: BxPC-3, 48 h; read-out: Loss of Viability IC50
pIC50: −log10 of the molar value.

{"MOLECULE": "N[C@@H](CCC(=O)N[C@@H](CSCC(=O)Nc1ccc([As]=O)cc1)C(=O)NCC(=O)O)C(=O)O (stereo partly shown)", "pIC50": "< 3.49"}

---

Tested on: human pancreatic carcinoma BxPC-3 cells
Experiment: Cell proliferation and viability assay (MTT)
Format: cell-based
Conditions: Homo sapiens, BXPC-3; 10% serum, 48 h; read-out: IC50 for proliferation arrest of BxPC-3 cells
pIC50: −log10 of the molar value.
MEASURED PARAMETER: pIC50

{"COMPOUND": "NC(CCC(=O)NC(CSCC(=O)Nc1ccccc1[As](O)O)C(=O)NCC(=O)O)C(=O)O (stereo not shown) [Compound 1]", "SYSTEM": "human pancreatic carcinoma BxPC-3 cells", "MEASURED PARAMETER": "pIC50", "RESULT": "~5.70"}

---

System: HT1080 (human fibrosarcoma)
Test: Proliferation arrest and loss of viability (cell number and propidium iodide, flow cytometry)
Assay type: cell-based
Details: HT1080, 48 h; read-out: Proliferation Arrest IC50
Experimental: To distinguish between the anti-proliferative and pro-apoptotic effects of GSAO, treated cells were stained with propidium iodide (PI) to detect late-apoptotic or dead cells. The total number of cells and the proportion of cells that were PI-positive following 48 h treatment with GSAO were measured by flow cytometry.
MEASURED PARAMETER: IC50 (µM)

{"COMPOUND": "N[C@@H](CCC(=O)N[C@@H](CSCC(=O)Nc1ccc([As]=O)cc1)C(=O)NCC(=O)O)C(=O)O (stereo partly shown) [GSAO]", "MEASURED PARAMETER": "IC50", "UNITS SYMBOL": "µM", "QUANTITATIVE RESULT": 95}

---

Test system: BxPC-3 (human pancreatic carcinoma)
Assay: Proliferation arrest and loss of viability (cell number and propidium iodide, flow cytometry)
Format: cell-based
Settings: BxPC-3, 48 h; read-out: Proliferation Arrest IC50
pIC50: −log10 of the molar value.

{"COMPOUND": "N[C@@H](CCC(=O)N[C@@H](CSCC(=O)Nc1ccc([As]=O)cc1)C(=O)NCC(=O)O)C(=O)O (stereo partly shown)", "SYSTEM": "BxPC-3 (human pancreatic carcinoma)", "pIC50": "< 3.49"}

---

Test system: BAE cells
Assay: cells
Settings: Bos taurus, read-out: IC50 (μM)*
Residues, ends and D or L forms follow the SMILES beside them. *: point of attachment. X2 = O=C(C*)Nc1ccc([As](O)O)cc1
MEASURED PARAMETER: IC50

{"COMPOUND": "O=C(O)Cn1nnnc1SCC(=O)Nc1ccc([As](O)O)cc1", "RESULT": "51.3 µM"}
{"COMPOUND": "CC(C)C(N)C(=O)NC(C(=O)NC(CSCC(=O)Nc1ccc([As](O)O)cc1)C(=O)NCC(=O)O)C(C)O (stereo not shown) [Compound 8] (H-VTC(X2)G-OH; configuration not given here)", "RESULT": "8.8 µM"}
{"COMPOUND": "NCC(=O)NCC(=O)NC(CSCC(=O)Nc1ccc([As](O)O)cc1)C(=O)O (stereo not shown)", "RESULT": "19 µM"}
{"COMPOUND": "NC(CCC(=O)NC(CSCC(=O)Nc1ccccc1[As](O)O)C(=O)NCC(=O)O)C(=O)O (stereo not shown)", "RESULT": "0.16 µM"}
